Experimental system: aromatase (Homo sapiens, UniProt P11511)
Construct: microsomes arising from human placenta (0.1 mg/ml, protein concentration); from tissue; host or cells: human placenta microsomes
Sequence (P11511 whole entry): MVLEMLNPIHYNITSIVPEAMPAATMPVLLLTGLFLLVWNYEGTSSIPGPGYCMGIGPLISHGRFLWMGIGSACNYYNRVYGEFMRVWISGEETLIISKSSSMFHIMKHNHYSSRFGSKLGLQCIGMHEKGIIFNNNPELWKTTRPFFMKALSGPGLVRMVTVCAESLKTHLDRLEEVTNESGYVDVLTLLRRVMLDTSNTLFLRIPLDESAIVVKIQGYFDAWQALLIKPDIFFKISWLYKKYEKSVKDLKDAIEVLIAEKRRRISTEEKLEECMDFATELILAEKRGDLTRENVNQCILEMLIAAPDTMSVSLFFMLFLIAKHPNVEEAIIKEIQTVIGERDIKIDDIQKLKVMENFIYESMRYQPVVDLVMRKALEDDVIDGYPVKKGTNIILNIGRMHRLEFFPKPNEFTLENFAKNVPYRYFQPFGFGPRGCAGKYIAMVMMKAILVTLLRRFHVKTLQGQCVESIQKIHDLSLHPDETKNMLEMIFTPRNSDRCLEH
Protocol notes: Aromatase inhibitory activity (H14COOH release from [19-14C]4-androstene-3,17-dione, human placenta microsomes)
Type: biochemical
Condition context: microsomes of human placenta, 0.1 mg/ml protein; substrate [19-14C]4-androstene-3,17-dione 1×10^-6 M; 37° C., 30 min; read-out: 50% inhibitory concentration (IC50) of the aromatase activity
Property: IC50
Note to self: number, then unit, no commentary.

Worked cases, answers included:
>>> result("CC1(C)CCC(Cc2ccc(-c3ccccc3)cc2)C1(O)Cn1ccnc1 (stereo not shown)")
"4.1 µM"
>>> result("CC(C)c1ccc(CC2CCCC2(O)Cn2ccnc2)cc1 (stereo not shown)")
"6.3 µM"
>>> result("CC1(C)CCC(Cc2ccccc2-c2ccccc2)C1(O)Cn1ccnc1 (stereo not shown)")
"3.7 µM"

Next, consider the following molecule.
Request: Provide IC50 value for the following molecule: N#Cc1ccc(CC2CCCC2(O)Cn2ccnc2)cc1 (stereo not shown)
Result: 4.5 µM

---

Experimental system: aromatase (Homo sapiens)
Construct: microsomes arising from human placenta (0.1 mg/ml, protein concentration); from tissue; host or cells: human placenta microsomes
Protocol notes: Aromatase inhibitory activity (H14COOH release from [19-14C]4-androstene-3,17-dione, human placenta microsomes)
Type: biochemical
Method: The aromatase inhibitory activity was measured in the manner described by Covey, D. F., Biochem. and Biophys. Res. Commun., 157 (1) 81-86 (1988). […] Aromatase activity was measured in the manner described by Covey, D. F., Biochem. Biophys. […] An aromatase base was taken from microsomes of human placenta and [19-^14 C]4-androstene-3,17 dione was used as a substrate. H^14 COOH was released into a reaction mixture after aromatization and its radioactivity was measured to evaluate the aromatase activity. […]
Property: IC50
Include the unit after the number when you answer.

>>> result("CC(C)c1ccc(CC2CCC(C)(C)C2(O)Cn2cncn2)cc1 (stereo not drawn)")
"8.4 µM"
>>> result("CC(C)(C)c1ccc(CC2CCC(C)(C)C2(O)Cn2ccnc2)cc1 (stereo not drawn)")
"4.2 µM"
>>> result("CC1(C)CCC(Cc2ccc(Cl)cc2)C1(O)Cn1ccnc1 (stereo not drawn)")
"0.3 µM"
>>> result("OC1(Cn2cncn2)CCCC1Cc1ccc(Cl)cc1 (stereo not drawn)")
"3.8 µM"
>>> result("CC1(C)CCC(Cc2ccc(C(F)(F)F)cc2)C1(O)Cn1cncn1 (stereo not drawn)")
"7.2 µM"

Request: Note down IC50 recorded for CC(C)c1ccc(CC2CCCC2(O)Cn2cncn2)cc1 (stereo not drawn)
Result: 4.3 µM

Request: Dear colleague, please send me the reported IC50 for CC1(C)CCC(Cc2ccc(F)cc2F)C1(O)Cn1ccnc1 (stereo not drawn) when you can.
Result: 0.4 µM

Request: Tell me IC50 reported for CC(C)c1ccc(CC2CCC(C)(C)C2(O)Cn2ccnc2)cc1 (stereo not drawn)
Result: 6 µM

Request: Consider the compound N#Cc1ccc(CC2CCCC2(O)Cn2cncn2)cc1 (stereo not drawn) . State its measured IC50.
Result: 7.3 µM

Request: Annotate the compound OC1(Cn2ccnc2)CCCC1Cc1ccc(F)cc1 (stereo not drawn) with its measured IC50.
Result: 7 µM

Request: Supply IC50 value. Item: CC1(C)CCC(Cc2ccc(Cl)cc2)C1(O)Cn1cncn1 (stereo not drawn)
Result: 4.7 µM

Request: Return IC50 (reported value) for this compound: OC1(Cn2cncn2)CCCC1Cc1ccc(F)cc1 (stereo not drawn)
Result: 3.5 µM

Request: Answer with the recorded IC50 of OC1(Cn2ccnc2)CCCC1Cc1ccc(F)cc1F (stereo not drawn) only.
Result: 0.48 µM

Request: Hello, please tell me recorded IC50 for this one: CC(C)(C)c1ccc(CC2CCC(C)(C)C2(O)Cn2cncn2)cc1 (stereo not drawn)
Result: 2.6 µM

Request: Dear colleague, please send me the reported IC50 for OC1(Cn2ccnc2)CCCC1Cc1ccc(Cl)cc1 (stereo not drawn) when you can.
Result: 5 µM

Request: Return reported IC50. Input compound: CC1(C)CCC(Cc2ccc(C(F)(F)F)cc2)C1(O)Cn1ccnc1 (stereo not drawn)
Result: 5.5 µM

Request: Identify measured IC50 associated with OC1(Cn2cncn2)CCCC1Cc1ccc(F)cc1F (stereo not drawn)
Result: 7.5 µM

Request: Tell us which IC50 value is on record for C[C@]12CCC(=O)C(O)=C1CC[C@@H]1[C@@H]2CC[C@]2(C)C(=O)CC[C@@H]12 [Control, 4-Hydroxyandrostenedione, reference compound]
Result: 20 µM

---

System: mastocarcinoma
Protocol notes: Inhibition of tumor growth in rats with mastocarcinoma after 7,12-dimethylbenzanthracene
Format: in vivo, Sprague-Dawley rats
Condition context: Rattus norvegicus, 600 h; female Sprague-Dawley rats; daily ip 20 mg/kg for 20 consecutive days; tumors weighed 5 days after last injection; read-out: I.R. (inhibition rate of tumor growth)
The molecules listed here are annotated with their inhibition in vivo at 20 mg/kg.
Supply the numeric figure in %, leaving out any unit text.

>>> numeric_result("CC1(C)CCC(Cc2ccc(-c3ccccc3)cc2)C1(O)Cn1ccnc1 (stereo not shown) [compound 8]")
60
>>> numeric_result("CC1(C)CCC(Cc2ccc(C(F)(F)F)cc2)C1(O)Cn1cncn1 (stereo not shown) [compound 18]")
65
>>> numeric_result("OC1(Cn2ccnc2)CCCC1Cc1ccc(Cl)cc1 (stereo not shown) [compound 4]")
74
>>> numeric_result("OC1(Cn2ccnc2)CCCC1Cc1ccc(F)cc1 (stereo not shown) [Comp. No. 2]")
70
>>> numeric_result("CC1(C)CCC(Cc2ccc(Cl)cc2)C1(O)Cn1ccnc1 (stereo not shown) [compound 16]")
83

Request: Provide measured inhibition in vivo at 20 mg/kg value, entry: OC1(Cn2cncn2)CCCC1Cc1ccc(Cl)cc1 (stereo not shown) [compound 3]
Result: 64

Request: Tell me its inhibition in vivo at 20 mg/kg given CC(C)c1ccc(CC2CCCC2(O)Cn2cncn2)cc1 (stereo not shown) [compound 20] as the entry.
Result: 60

Request: Recall and state the measured inhibition in vivo at 20 mg/kg for OC1(Cn2cncn2)CCCC1Cc1ccc(F)cc1 (stereo not shown) [Comp. No. 1] .
Result: 60

Request: Specify reported inhibition in vivo at 20 mg/kg for the molecule shown: CC1(C)CCC(Cc2ccc(F)cc2F)C1(O)Cn1ccnc1 (stereo not shown) [compound 17]
Result: 67

Request: Name the recorded inhibition in vivo at 20 mg/kg of the molecule listed here: CC(C)c1ccc(CC2CCC(C)(C)C2(O)Cn2cncn2)cc1 (stereo not shown) [compound 13]
Result: 55
